Sourced from patent US11498899B2

System: corn (Zea mays)
assay remarks: Test A postemergence, visual injury rating 0-100
Format: in vivo
assay setup: 500 g ai/ha, 0 to 100 scale
property: Corn plant response rating
Number, no unit, nothing else.

Solved entries:
CC1=[N+]([O-])C(C(=O)Nc2cccc(F)c2F)C(c2cc(F)c(C(F)(F)F)c(F)c2)C1 (racemic)    80
CC1=[N+]([O-])C(C(=O)Nc2cccc(F)c2F)C(c2ccc(OC(F)(F)F)c(F)c2)C1 (racemic)    80

Query CC1=[N+]([O-])C(C(=O)Nc2cccc(F)c2F)C(c2ccccc2C)C1 (racemic) yields Corn plant response rating of 0

Corn plant response rating reading for CC1=[N+]([O-])C(C(=O)Nc2cccc(F)c2F)C(c2cccc3c2CCC3)C1 (racemic) : 80

// Corn plant response rating lookup, compound = CC1=[N+]([O-])C(C(=O)Nc2cccc(F)c2F)C(c2ccc(Cl)c(C(F)(F)F)c2)C1 (racemic) , result: 60

Corn plant response rating reading for CC1=[N+]([O-])C(C(=O)Nc2cccc(F)c2F)C(c2cc(C)nc(OC(F)F)c2)C1 (racemic) : 90

Lab note: CC1=[N+]([O-])C(C(=O)Nc2cccc(F)c2F)C(c2ccc(F)c(C(F)(F)F)c2)C1 (racemic) gave Corn plant response rating of 90

* * *

Tested on: pigweed (Amaranthus retroflexus)
assay remarks: Test A preemergence, visual injury rating 0-100
Format: in vivo
assay setup: 500 g ai/ha
property: Pigweed plant response rating (0 to 100 scale)
Please give only the number in your answer, with no unit.

Pigweed plant response rating (0 to 100 scale) of COc1cc(C)cc(C2CC(C)=[N+]([O-])C2C(=O)Nc2cccc(F)c2F)c1 (stereo not shown) [Compound 91] , assay on pigweed (Amaranthus retroflexus), is 60

Tested on pigweed (Amaranthus retroflexus): CC1=[N+]([O-])C(C(=O)Nc2cccc(F)c2F)C(c2ccc(C(F)(F)F)cc2F)C1 (stereo not shown) [Compound 101] . Observed Pigweed plant response rating (0 to 100 scale): 90

For CC1=[N+]([O-])[C@@H](C(=O)Nc2cccc(F)c2F)[C@H](c2cccc(Oc3ccc(F)cn3)c2)C1 [Compound 84] on pigweed (Amaranthus retroflexus), measured Pigweed plant response rating (0 to 100 scale) was 30

Observed Pigweed plant response rating (0 to 100 scale) on pigweed (Amaranthus retroflexus), entry CC1=[N+]([O-])C(C(=O)Nc2cccc(F)c2F)C(c2cccc(Oc3ncc(Cl)cn3)c2)C1 (racemic) [Compound 115] , equals 0

Considering CC1=[N+]([O-])C(C(=O)Nc2cccc(F)c2C#N)C(c2ccc(C(F)(F)F)cc2)C1 (racemic) [Compound 34] , its Pigweed plant response rating (0 to 100 scale) with pigweed (Amaranthus retroflexus) was recorded as 90

With pigweed (Amaranthus retroflexus) as the test system, CC1=[N+]([O-])[C@H](C(=O)Nc2ccc(F)nc2F)[C@@H](c2ccc(C(F)(F)F)cc2)C1 (relative stereo) [Compound 37] showed Pigweed plant response rating (0 to 100 scale) of 100

Field Pigweed plant response rating (0 to 100 scale) (system: pigweed (Amaranthus retroflexus)) for entry CC1=[N+]([O-])C(C(=O)Nc2cccc(F)c2F)C(c2cccc(F)c2C)C1 (racemic) [Compound 78] = 80

* * *

Reported Barnyardgrass plant response rating by item:
Test system: barnyardgrass (Echinochloa crus-galli)
assay remarks: Test A postemergence, visual injury rating 0-100
Type: in vivo
assay setup: 125 g ai/ha, 0 to 100 scale
Respond with the number and no other words.

Field: example entries. Status: answers known.
CC1=[N+]([O-])C(C(=O)Nc2cccc(F)c2F)C(c2ccc(C)c(Br)c2)C1 (racemic)    80
CC1=[N+]([O-])C(C(=O)Nc2cccc(F)c2F)C(c2cc(F)c(C(F)(F)F)c(F)c2)C1 (racemic)    70

# Barnyardgrass plant response rating of CC1=[N+]([O-])C(C(=O)Nc2ccncc2C(F)(F)F)C(c2ccc(C(F)(F)F)cc2)C1 (racemic) = 0

Input CC1=[N+]([O-])C(C(=O)Nc2cccc(F)c2F)C(c2ccc(F)c(Oc3ccc(F)cn3)c2)C1 (racemic) . Output Barnyardgrass plant response rating: 0

* * *

Tested on: barnyardgrass (Echinochloa crus-galli)
assay remarks: Test B flooded paddy test, visual rating 0-100
assay setup: Flood, 250 g ai/ha, applied to paddy water, rated after 13 to 15 days
Barnyardgrass plant response rating (0 to 100 scale) values by entry
Number, no unit, nothing else.

// worked examples, Barnyardgrass plant response rating (0 to 100 scale) included
CC1=[N+]([O-])C(C(=O)Nc2cccc(F)c2F)C(c2cc(C)cc(F)c2)C1 (racemic)    65
CC1=[N+]([O-])C(C(=O)Nc2cccc(F)c2F)C(c2ccc(F)c(C(F)(F)F)c2)C1 (racemic)    60
CC1=[N+]([O-])[C@H](C(=O)Nc2cccc(F)c2F)[C@@H](c2ccc(C(F)F)cc2)C1 (relative stereo)    70

Sure, the documented Barnyardgrass plant response rating (0 to 100 scale) for CC1=[N+]([O-])[C@H](C(=O)Nc2ccc(F)nc2F)[C@@H](c2ccc(C(F)(F)F)cc2)C1 (relative stereo) is 45

Query CC1=[N+]([O-])C(C(=O)Nc2ccccc2[S+](C)[O-])C(c2ccc(C(F)(F)F)cc2)C1 (racemic) yields Barnyardgrass plant response rating (0 to 100 scale) of 0

Barnyardgrass plant response rating (0 to 100 scale) reading for CC1=[N+]([O-])C(C(=O)Nc2cccc(F)c2F)C(c2ccc(C(F)(F)F)cn2)C1 (racemic) : 15

Lookup result for CC1=[N+]([O-])C(C(=O)Nc2cccc(F)c2F)C(c2cc(C)cc(C(F)(F)F)c2)C1 (stereo not shown) ; measured Barnyardgrass plant response rating (0 to 100 scale): 70

* * *

System: foxtail, giant (giant foxtail, Setaria faberii)
assay remarks: Test A postemergence, visual injury rating 0-100
Type: in vivo
assay setup: 125 g ai/ha, 0 to 100 scale
Foxtail, Giant plant response rating for assorted compounds

CC1=[N+]([O-])C(C(=O)Nc2cccc(F)c2F)C(c2c(F)cccc2Cl)C1 (racemic)    0
CC1=[N+]([O-])C(C(=O)Nc2cccc(F)c2F)C(c2ccc(F)cc2)C1 (racemic)    50
CC1=[N+]([O-])C(C(=O)Nc2cccc(F)c2F)C(c2cccc(Cl)c2C)C1 (racemic)    80
CC1=[N+]([O-])[C@@H](C(=O)Nc2cccc(F)c2F)[C@H](c2cccc(OC(C)C)c2)C1    80
CC1=[N+]([O-])C(C(=O)Nc2cccc(F)c2F)C(c2cc(C(F)(F)F)cc(C(F)(F)F)c2)C1 (racemic)    80
CC1=[N+]([O-])C(C(=O)Nc2cccc(F)c2F)C(c2cc(C(F)(F)F)ccc2C)C1 (stereo not drawn)    80
CC1=[N+]([O-])[C@H](C(=O)Nc2cccc(F)c2F)[C@@H](c2ccc(C)cc2)C1 (relative stereo)    90
CC1=[N+]([O-])C(C(=O)Nc2cccc(F)c2F)C(c2cccc(Oc3ncc(Cl)cn3)c2)C1 (racemic)    0
COc1cccc(C2CC(C)=[N+]([O-])C2C(=O)Nc2cccc(F)c2F)n1 (racemic)    0
CC1=[N+]([O-])C(C(=O)Nc2cccc(F)c2F)C(c2cc(C)n(Cc3ccc(Cl)cc3)c(=O)c2)C1 (racemic)    0

Notebook: CC(C)C1=[N+]([O-])C(C(=O)Nc2cccc(F)c2F)C(c2ccc(C(F)(F)F)cc2)C1 (racemic) , Foxtail, Giant plant response rating read as 0

// CC1=[N+]([O-])C(C(=O)Nc2cccc(F)c2F)C(c2cccc(C(F)(F)F)n2)C1 (stereo not drawn) : Foxtail, Giant plant response rating value = 20

* * *

Test system: ragweed (common ragweed, Ambrosia elatior)
assay remarks: Test A postemergence, visual injury rating 0-100
Assay type: in vivo
assay setup: 125 g ai/ha, 0 to 100 scale
property: Ragweed plant response rating

Example entries and their recorded answers appear below.
CC1=[N+]([O-])C(C(=O)Nc2cccc(F)c2F)C(c2cccc(Oc3ccc(Cl)cn3)c2)C1 (racemic)    0
CC1=[N+]([O-])C(C(=O)Nc2cccc(F)c2F)C(c2ccc(=O)n(Cc3ccc(Cl)cc3)c2)C1 (racemic)    0
CC1=[N+]([O-])C(C(=O)Nc2cccc(F)c2F)C(c2cc(C(F)(F)F)cc(C(F)(F)F)c2)C1 (racemic)    0
CC1=[N+]([O-])C(C(=O)Nc2cccc(F)c2F)C(c2cccc(C(F)(F)F)n2)C1 (stereo not shown)    0

Just so you know, measured Ragweed plant response rating for CC1=[N+]([O-])C(C(=O)Nc2cccc(F)c2F)C(c2cccc(Cl)c2C)C1 (racemic) came out at 0

Ragweed plant response rating in this record for CC1=[N+]([O-])C(C(=O)Nc2cccc(F)c2F)C(c2cc(C)cc(F)c2)C1 (racemic) : 40

Ragweed plant response rating recorded for this molecule, CC1=[N+]([O-])C(C(=O)Nc2cccc(F)c2F)C(c2ccc(F)c(Oc3ccc(Cl)nc3)c2)C1 (racemic) , is 60
